# test system: ASIC1b (Rattus norvegicus)
# Construct: homomeric rASIC1b (splice variant) expressed in CHO cells
# Sequence (P55926 186-526 limits assumed): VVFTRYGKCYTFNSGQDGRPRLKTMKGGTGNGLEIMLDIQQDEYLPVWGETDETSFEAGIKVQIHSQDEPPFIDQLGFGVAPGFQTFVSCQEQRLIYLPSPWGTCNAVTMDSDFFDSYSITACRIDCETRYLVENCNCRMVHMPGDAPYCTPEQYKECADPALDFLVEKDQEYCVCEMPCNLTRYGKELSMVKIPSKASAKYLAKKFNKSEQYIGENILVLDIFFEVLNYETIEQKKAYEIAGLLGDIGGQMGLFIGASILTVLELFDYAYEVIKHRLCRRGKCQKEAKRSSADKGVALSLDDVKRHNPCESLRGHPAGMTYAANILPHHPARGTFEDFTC
# protocol text: whole-cell patch clamp, CHO cells, activation at pH […]
readout type: IC50 (µM)
Give the value in µM but do not write µM after it.

Query: Give reported IC50 for Nc1c2ccccc2nc2ccccc12 (ASIC1b (Rattus norvegicus))
Reply: 440
